Numbers sourced from patent US20180355059A1.

# Lookup of reported OD450 nm keyed by entry
experimental.system: T1, recombinant cyno monkey PCSK9 protein (cyno monkey, UniProt A8T666 31-692 (rhesus entry), limits assumed, biotinylated in the ELISA assays)
T1 construct: also called cyno PCSK9; Cyno Monkey PCSK9-His
T1 sequence (A8T666 31-692 limits assumed): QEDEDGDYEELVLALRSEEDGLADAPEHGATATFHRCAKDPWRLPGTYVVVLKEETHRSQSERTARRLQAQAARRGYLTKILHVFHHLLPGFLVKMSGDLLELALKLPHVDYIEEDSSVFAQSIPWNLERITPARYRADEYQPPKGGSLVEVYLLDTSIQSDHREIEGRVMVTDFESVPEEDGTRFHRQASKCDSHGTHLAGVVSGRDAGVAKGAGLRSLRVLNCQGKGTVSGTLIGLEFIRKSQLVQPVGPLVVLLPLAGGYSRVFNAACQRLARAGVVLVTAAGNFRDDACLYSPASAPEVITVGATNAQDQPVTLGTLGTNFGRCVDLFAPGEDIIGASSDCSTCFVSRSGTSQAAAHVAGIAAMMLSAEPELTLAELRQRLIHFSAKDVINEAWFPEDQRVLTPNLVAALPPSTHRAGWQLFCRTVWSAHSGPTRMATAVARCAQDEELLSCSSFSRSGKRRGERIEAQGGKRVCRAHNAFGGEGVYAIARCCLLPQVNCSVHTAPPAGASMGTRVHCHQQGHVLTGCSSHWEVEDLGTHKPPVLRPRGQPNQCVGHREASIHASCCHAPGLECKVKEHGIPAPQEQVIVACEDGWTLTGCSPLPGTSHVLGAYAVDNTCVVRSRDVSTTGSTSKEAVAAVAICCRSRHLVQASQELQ
test.protocol: ELISA; antibody 0.00067 nM

| binder | readout.units | OD450 nm |
| --- | --- | --- |
| 76A1B11, fully human anti-PCSK9 antibody (antibody, human IgG1, V domains shown) VH: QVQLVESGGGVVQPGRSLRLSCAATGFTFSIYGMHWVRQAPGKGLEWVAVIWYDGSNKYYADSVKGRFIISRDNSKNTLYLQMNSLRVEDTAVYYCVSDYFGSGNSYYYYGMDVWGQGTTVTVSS VL: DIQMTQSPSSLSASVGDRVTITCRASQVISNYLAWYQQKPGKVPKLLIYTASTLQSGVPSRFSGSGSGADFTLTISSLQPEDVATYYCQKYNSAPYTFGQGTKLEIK | OD450 nm | 0.08 |
| 74C10A8, fully human anti-PCSK9 antibody (antibody, human IgG1, V domains shown) VH: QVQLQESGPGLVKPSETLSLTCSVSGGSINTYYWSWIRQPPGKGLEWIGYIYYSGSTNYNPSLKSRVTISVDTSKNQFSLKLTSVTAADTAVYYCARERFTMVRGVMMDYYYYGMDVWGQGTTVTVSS VL: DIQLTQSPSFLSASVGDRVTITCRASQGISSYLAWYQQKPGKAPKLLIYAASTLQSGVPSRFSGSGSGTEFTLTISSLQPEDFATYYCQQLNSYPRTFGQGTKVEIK | OD450 nm | 0.06 |
| 139G1C5, fully human anti-PCSK9 antibody (antibody, human IgG1, V domains shown) VH: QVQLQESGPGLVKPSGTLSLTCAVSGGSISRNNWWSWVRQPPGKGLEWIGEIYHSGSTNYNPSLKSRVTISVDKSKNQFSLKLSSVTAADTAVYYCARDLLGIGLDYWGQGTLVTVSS VL: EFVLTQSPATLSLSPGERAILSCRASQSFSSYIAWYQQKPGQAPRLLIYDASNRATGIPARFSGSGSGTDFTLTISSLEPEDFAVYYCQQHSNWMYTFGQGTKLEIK | OD450 nm | 0.08 |
| 152G2F7, fully human anti-PCSK9 antibody (antibody, human IgG1, V domains shown) VH: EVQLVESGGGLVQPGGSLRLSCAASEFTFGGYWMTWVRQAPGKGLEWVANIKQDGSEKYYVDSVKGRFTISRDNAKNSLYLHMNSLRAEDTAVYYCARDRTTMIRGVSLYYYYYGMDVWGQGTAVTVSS VL: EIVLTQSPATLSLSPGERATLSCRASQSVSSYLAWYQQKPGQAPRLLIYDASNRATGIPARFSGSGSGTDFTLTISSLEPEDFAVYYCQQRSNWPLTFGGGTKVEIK | OD450 nm | 0.06 |
